Numbers sourced from the supplement of paper PMC11451515.

Test system: NOMO1
Test: cell viability relative to DMSO control; higher = less cytotoxic
Settings: RPMI 5 mM glucose + 10% dialyzed FBS; 48 h; 0.00234 µM
cell viability values for the compounds below.
The reply should contain only the number, in %.

Reference set, count: 2
| compound | cell viability / % |
| --- | --- |
| CC(C)(C)OC(=O)CN(Cc1ccc(Cl)cc1)Cc1ccc([N+](=O)[O-])s1 | 97.7 |
| O=C(NC1CCNCC1)c1n[nH]cc1NC(=O)c1c(Cl)cccc1Cl | 116 |

Lookup: Data request, read-out cell viability, for CCOC(=O)Nc1ccc(NCc2ccc(F)cc2)cc1N
Found: 133

Lookup: Then CCCCCCCCCCCC(CC1OC(=O)C1CCCCCC)OC(=O)C(CC(C)C)NC=O (stereo not drawn) ?
Found: 102

Lookup: Moving on to COc1cc2nccc(Oc3ccc(NC(=O)Nc4ccc(F)cc4F)c(F)c3)c2cc1OC
Found: 96.1

Lookup: Same question for C[C@H]1CN(C[C@@H](C)O1)CC(=O)NC2=CC=C3SC4=C(CC3=C2)C=CC=C4\C5=C\C(=O)\C=C(/O5)N6CCOCC6 please.
Found: 108

Lookup: Param item: COC[C@H](NC(=O)c1cnc(C)s1)C(=O)N[C@@H](COC)C(=O)N[C@@H](Cc1ccccc1)C(=O)[C@@]1(C)CO1
Found: 98.1

Lookup: Repeat for the following compound: Cc1cc2c(C(C)C)c(O)c(O)c(C=O)c2c(O)c1-c1c(C)cc2c(C(C)C)c(O)c(O)c(C=O)c2c1O
Found: 115
